# System: 786-0 renal
# Assay method text: NCI-60 one-dose screen, 48 h (100 = growth as untreated, 0 = no growth, -100 = all killed)
# Experimental context: 10 µM unless noted
This is part of a sample that, as a whole, favours compounds with a hit. Of some 83,000 tested, about 20% had one in any assay.
// growth lookup, one value per entry
Value type: growth (%)

COc1ccc(S(=O)(=O)Nc2cc(Sc3cccc4cccnc34)c(O)c3ccccc23)cc1    28.5
Cc1c(C(=O)OCCCCOC(=O)c2c(C)n(C)c3scc[n+]23)[n+]2ccsc2n1C    112
COCCn1cc(-c2nc(-c3cn(CCOC)c4ncccc34)cs2)c2ccccc21    82.9
O=C(Nc1ccc(F)cc1)c1cc2cc(Nc3nc(-c4ccccc4)nc4ccccc34)ccc2oc1=O    98.4
COc1nc2ccc(C)cc2cc1/C=[N+](\[O-])c1ccccc1    103
C#Cc1cc(C(=O)Nc2ccc(CN3CCN(C)CC3)c(C(F)(F)F)c2)ccc1C    52.2
CCOC(=O)c1cnn(CC(O)CC)c1NC(=O)NCc1ccccc1C(F)(F)F (centres undefined)    96
N=c1ccccn1CCO    102
CC[C@]1(O)CC2CN(CCc3c([nH]c4ccccc34)C(C(=O)OC)(c3cc4c(cc3OC)N(C=O)[C@H]3[C@@](O)(C(=O)OC)[C@H](OC(C)=O)[C@]5(CC)[C@@H]6C[C@@H]6CN6CC[C@]43[C@@H]65)C2)C1 (some centres undefined)    5.62
